Taken from the supplement of paper PMC10065799.

Target: Fyn (UniProt P06241)
Sequence (P06241 whole entry, looked up): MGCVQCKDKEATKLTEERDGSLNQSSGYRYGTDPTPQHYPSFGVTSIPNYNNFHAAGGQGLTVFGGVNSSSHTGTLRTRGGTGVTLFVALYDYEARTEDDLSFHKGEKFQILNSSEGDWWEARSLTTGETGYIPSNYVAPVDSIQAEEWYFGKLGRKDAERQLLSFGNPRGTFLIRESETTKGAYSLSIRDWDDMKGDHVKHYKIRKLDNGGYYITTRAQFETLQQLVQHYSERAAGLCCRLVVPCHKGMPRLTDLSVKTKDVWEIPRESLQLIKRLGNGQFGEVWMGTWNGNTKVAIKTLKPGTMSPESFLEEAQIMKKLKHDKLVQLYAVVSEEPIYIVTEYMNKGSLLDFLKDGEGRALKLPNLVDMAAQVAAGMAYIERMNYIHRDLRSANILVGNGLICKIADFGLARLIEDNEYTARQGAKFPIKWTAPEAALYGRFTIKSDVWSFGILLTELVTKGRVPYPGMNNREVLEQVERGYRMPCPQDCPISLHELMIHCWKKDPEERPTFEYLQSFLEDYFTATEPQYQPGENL
Test: phosphorylation enrichment, bacterial display (enrichment ratio); higher = better substrate or ligand; peptides without Tyr show the background;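 further: 11-residue human phosphosite peptides and single-mutation variants displayed on the E. coli surface, counted by deep sequencing, each peptide's frequency after selection divided by its frequency in the unselected input library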;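 further: frequency after pTyr selection over input frequency; kinase dosed for 20-30% of maximal phosphorylation in three min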
We use 0.6 as the dividing line for phosphorylation enrichment: on or above the line is true, below is false.

Qu. Given the entry ALEKTYNTYRS [B4GALNT2_Y538] , answer whether its phosphorylation enrichment meets or surpasses 0.6.
Ans. false

Qu. Given the entry SVVVPYEPPEV [TP53_Y220] , answer whether its phosphorylation enrichment meets or surpasses 0.6.
Ans. false

Qu. Given the entry DFTSRYLSASD [PKHD1_Y828_N830S] , answer whether its phosphorylation enrichment meets or surpasses 0.6.
Ans. false

Qu. Given the entry LVRPPYSFSAL [FOXI1_Y126_YF] , answer whether its phosphorylation enrichment meets or surpasses 0.6.
Ans. false

Qu. Given the entry LSDGPYSSPYE [EPOR_Y485_N487S] , answer whether its phosphorylation enrichment meets or surpasses 0.6.
Ans. true

Qu. Given the entry LGPSDYFGETA [PRKAR1A_Y323_I327T] , answer whether its phosphorylation enrichment meets or surpasses 0.6.
Ans. false

Qu. Given the entry PIPAAYNRYDQ [CDC73_Y290] , answer whether its phosphorylation enrichment meets or surpasses 0.6.
Ans. true

Qu. Given the entry TVSSDYLHPQY [CCPG1_Y569_F566S] , answer whether its phosphorylation enrichment meets or surpasses 0.6.
Ans. false

Qu. Given the entry ESFCLYPPVPQ [CYP4B1_Y377_R375C] , answer whether its phosphorylation enrichment meets or surpasses 0.6.
Ans. false

Qu. Given the entry TIAIRYSHSRR [ACOXL_Y260] , answer whether its phosphorylation enrichment meets or surpasses 0.6.
Ans. true

Qu. Given the entry TSYSGYRCHRH [NKAPL_Y94_Y96C] , answer whether its phosphorylation enrichment meets or surpasses 0.6.
Ans. false

Qu. Given the entry KDHPDYKYQLR [SOX10_Y171_P175L] , answer whether its phosphorylation enrichment meets or surpasses 0.6.
Ans. false

Qu. Given the entry EFNLMYHGTKE [IRF6_Y97_D98H] , answer whether its phosphorylation enrichment meets or surpasses 0.6.
Ans. false

Qu. Given the entry RGVAHYILQTF [SLC39A4_Y359_T357A] , answer whether its phosphorylation enrichment meets or surpasses 0.6.
Ans. true

Qu. Given the entry LPKVSCVKAID [GLRA1_Y307_Y307C] , answer whether its phosphorylation enrichment meets or surpasses 0.6.
Ans. true

Qu. Given the entry FIAVGYVDDSQ [HLA-A_Y51_T55S] , answer whether its phosphorylation enrichment meets or surpasses 0.6.
Ans. false

Qu. Given the entry RQEEEYKRLSE [SFSWAP_Y133] , answer whether its phosphorylation enrichment meets or surpasses 0.6.
Ans. true

Qu. Given the entry ADDSFYTARSA [ZAP70_Y493_YF] , answer whether its phosphorylation enrichment meets or surpasses 0.6.
Ans. true

Qu. Given the entry KDFTKYVAFIE [KDM4B_Y31_N29T_YF] , answer whether its phosphorylation enrichment meets or surpasses 0.6.
Ans. false

Qu. Given the entry AEYGLYAAMVR [VSX2_Y222_G223A] , answer whether its phosphorylation enrichment meets or surpasses 0.6.
Ans. true

Qu. Given the entry MENFIYESMQF [CYP19A1_Y361_R365Q_YF] , answer whether its phosphorylation enrichment meets or surpasses 0.6.
Ans. true

Qu. Given the entry FSQQVYRVNLS [FAT4_Y480] , answer whether its phosphorylation enrichment meets or surpasses 0.6.
Ans. true

Qu. Given the entry LDYNEYFRNLN [HPRT1_Y198_D201N] , answer whether its phosphorylation enrichment meets or surpasses 0.6.
Ans. false

Qu. Given the entry GGQVFHNSEFG [FLT4_Y1333_Y1333H_YF] , answer whether its phosphorylation enrichment meets or surpasses 0.6.
Ans. false

Qu. Given the entry GLNKDYRMVVN [HINT1_Y94_G93D] , answer whether its phosphorylation enrichment meets or surpasses 0.6.
Ans. false

Qu. Given the entry RDLRTYIMPAH [PNMT_Y256] , answer whether its phosphorylation enrichment meets or surpasses 0.6.
Ans. false

Qu. Given the entry RFLFFYSFLLK [PTEN_Y178_V175L_YF] , answer whether its phosphorylation enrichment meets or surpasses 0.6.
Ans. true

Qu. Given the entry LAVPLYKNGVK [CPS1_Y1069] , answer whether its phosphorylation enrichment meets or surpasses 0.6.
Ans. true

Qu. Given the entry FDFKKYGKGLR [ZNF445_Y433_YF] , answer whether its phosphorylation enrichment meets or surpasses 0.6.
Ans. false

Qu. Given the entry KTKIGYSPLHQ [ANK1_Y735_L733I] , answer whether its phosphorylation enrichment meets or surpasses 0.6.
Ans. false

Qu. Given the entry EHTTLYSNNST [KANSL1_Y223] , answer whether its phosphorylation enrichment meets or surpasses 0.6.
Ans. false

Qu. Given the entry TLMNAYSSRSH [KIF11_Y231] , answer whether its phosphorylation enrichment meets or surpasses 0.6.
Ans. false

Qu. Given the entry QGCSIYKDFFR [PLA2G2D_Y82_YF] , answer whether its phosphorylation enrichment meets or surpasses 0.6.
Ans. true
